Recorded pKi by entry
# system-under-test: Cathepsin B (Homo sapiens)
Would you please state pKi, meaning minus log10 of the concentration in mol/L, as a bare number?

- compound: "COc1nsc(NC(=O)[C@H](Cc2ccccc2)NC(=O)OCc2ccccc2)n1"
  readout-label: "pKi"
  assay-value: 4.68
- compound: "COc1nsc(NC(=O)NC(CC(C)C)C(=O)NCCC(C)C)n1 (centres unmarked)"
  readout-label: "pKi"
  assay-value: 3.44

// returns pKi for CC(C)CC(Nc1nc(C(=O)O)ns1)C(=O)N1CCCC1C(=O)O (centres unmarked) with Cathepsin B (Homo sapiens); value = 3.52

// returns pKi for `COc1nsc(NC(=O)N[C@@H](CC(C)C)C(=O)N2CCC[C@H]2C(=O)O)n1` with Cathepsin B (Homo sapiens); value = 3.41

// returns pKi for `COc1nsc(NC(=O)[C@H](C)NC(=O)[C@H](Cc2ccccc2)NC(=O)OCc2ccccc2)n1` with Cathepsin B (Homo sapiens); value = 4.43
